ASSAY EXPLANATION: osmotic lysis modulators in infected erythrocytes, primary screen, PSAC antagonist project, cell-based, P. falciparum Indochina, OD700, 3 h (AID 1156)
CONDITION INFO: higher = more signal, called active from +8 up or from −8 down
VALUE TYPE: z-score

* CCOC(=O)CCN1C(=O)[C@H]2[C@H]3[C@H](O)[C@H](O)CC(=NO[C@@H]4O[C@H](CO)[C@@H](O)[C@H](O)[C@H]4O)[C@H]3CC[C@H]2C1=O | -0.788
* COc1ccc(COC(=O)NN=C2C[C@@H](O)[C@@H](O)[C@@H]3[C@@H]4C(=O)N(C(C)(C)C)C(=O)[C@@H]4CC[C@@H]23)cc1 | -0.609
* O=C1[C@H]2CCn3c(=O)n(-c4ccccc4)c(=O)n3[C@H]2[C@H](O)[C@@H]2O[C@H]12 | 0.337
* CC(=O)OC[C@H]1O[C@@H](ON=C2[C@H]3CCn4c(=O)n(-c5ccccc5)c(=O)n4[C@H]3[C@H](O)[C@@H]3O[C@H]23)[C@H](OC(C)=O)[C@@H](OC(C)=O)[C@@H]1OC(C)=O | -0.258
* CO[C@H]1C[C@@H]2C[C@H](O)CC(CC(=O)O[C@@H](C=CCC(C)C)C[C@@H]3CC[C@H](C)[C@@H](C1)O3)O2 | 0.773
* C#CCCCON=C1C[C@@H](O)[C@@H](O)[C@@H]2[C@@H]3C(=O)N([C@@H](C)c4ccccc4)C(=O)[C@@H]3CC[C@@H]12 | -0.195
* CC=CC1=C(CO)[C@H](O)[C@H]2O[C@H]2[C@@H]1O | -0.242

# credit: PubChem BioAssay
